Reference source for all entries: paper PMC9482650

Entries and their measured pKd follow.
- subject_of_test: T1, TX1BP3, O14907
- T1 sequence (O14907 10-122, limits assumed, looked up): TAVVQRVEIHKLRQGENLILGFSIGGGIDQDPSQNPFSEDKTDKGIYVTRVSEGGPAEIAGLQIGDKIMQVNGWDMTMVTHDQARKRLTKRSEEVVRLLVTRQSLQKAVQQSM
- assay_protocol: holdup assay
- Parameters: key: below the threshold = too weak to quantify, mostly under pKd 3.1 to 4
- experimental_setup: plain residues with an end cap or a label only (N-terminal biotin on a linker: ado-ado)
quantity_kind: pKd

binder="STKRKLASAV [NCF1, P14598]" quantity_kind=pKd endpoint_value=3.72
binder="DDASLPVSDV [PLEKHA1, Q9HB21]" quantity_kind=pKd endpoint_value=3.84
